test system: NCI/ADR-RES ovarian; assay: NCI tumour cell line growth inhibition, 48 h; in the data active means GI50 below about 0.43 µM; inactive means the rest
Outcome field: choose from active, inactive

O=C(N/N=C/c1ccncc1)c1ccc(F)cc1 : inactive

stdin: In this assay, the call recorded for Fc1ccc(Nc2nc3nonc3nc2Nc2ccc(I)cc2)cc1 was what?
stdout: active

stdin: What is the recorded call for this compound in the test? CC/C(=C(/c1ccc(OCCN(C)C)cc1)c1ccc(OC(=O)CCCCCCCCC(=O)c2c(C)[nH]c(/C=C3\N=C(c4ccc[nH]4)C=C3OC)c2C)cc1)c1ccccc1
stdout: inactive

stdin: What was the test verdict on CCCCOC(=O)c1c(C)[nH]c(/C=C2\N=C(c3ccc[nH]3)C=C2OC)c1C ?
stdout: active

stdin: Hi team, can someone confirm the assay call for C=CC(=O)N1CCC[C@@H](n2nc(-c3ccc(Oc4ccccc4)cc3)c3c(N)ncnc32)C1 ?
stdout: inactive

###

system: HT29 colon; experiment: NCI tumour cell line growth inhibition, 48 h
Quantity: TGI (µM)
Numbers only, in µM.

O=C(CN1CCN(C(=O)c2ccco2)CC1)Nc1ccc(Cl)cc1C(=O)c1ccccc1Cl : 22.3

Next, consider the following molecule.
stdin: Recall and state the measured TGI for C[C@]12CC[C@H]3[C@@H](CC[C@]4(O)C[C@@H](O[C@@H]5O[C@H](CO)[C@@H](O[C@@H]6OC[C@@H](O)[C@H](O)[C@H]6O)[C@H](O)[C@H]5O)CC[C@]34C=O)[C@@]1(O)CC[C@@H]2C1=CC(=O)OC1 .
stdout: 5.71

###

test system: UACC-257 melanoma; test: NCI tumour cell line growth inhibition, 48 h
For each record, write down the corresponding GI50.

Observe how each entry below is paired with its result.
O=C(CCN1CCCN(c2cnc3ccccc3n2)CC1)c1csc2ccccc12 : 26.1 µM
Cc1cc(C)c2c(c1)N(C)c1ncnc(-n3cnc4cc(C)ccc43)c1CC2C (stereo not given) : 11.5 µM
C#CCNC(=O)CC[C@@H](C)[C@H]1CC[C@H]2[C@@H]3CC[C@@H]4CC(=O)CC[C@]4(C)[C@H]3CC[C@]12C : 13.2 µM
CCCCCCCCCCCCCCCCCCOc1ccccc1COP(=O)(O)OOCC[N+](C)(C)C : 1.54 µM
COC(=O)c1cccc(NC(=O)c2ccc(NC3=C(Cl)C(=O)N(Cc4ccccc4)C3=O)cc2)c1 : 15.4 µM
CN(C)CCCCNc1ccc(NCCCCN(C)C)c2c1C(=O)c1c(O)ccc(O)c1C2=O : 18.4 µM
COc1c(B(O)O)cccc1-c1nc2c(F)cc3n[nH]c(C)c3c2c2c1CCCC2 : 2.08 µM
O=C(NN1C(=O)CSC1c1c(Cl)cccc1Cl)C(O)c1ccccc1 (stereo not given) : 31 µM

For every item in the list below, what is its measured GI50?
1. COC(=O)[C@]12CC[C@@H](C)[C@H](C)[C@@H]1C1=CC[C@@H]3[C@@](C)(CC#N)C4=C(C[C@@]3(C)[C@]1(C)CC2)OC[C@]4(C)C=O
2. Nc1n[nH]c2ccc([C@@H]3Nc4ccc5cn[nH]c5c4[C@H]4C5CCC(C5)[C@@H]34)cc12 (stereo not given in full)

stdout:
1: 3.73 µM; 2: 12.5 µM

###

test system: A498 renal; experiment: NCI tumour cell line growth inhibition, 48 h
Field: TGI. Provide a value for each of the molecules that follow.
Give bare numbers, in µM.

C[C@]12CC[C@H]3[C@@H](CC[C@]4(O)C[C@@H](O[C@@H]5O[C@H](CO)[C@@H](O[C@@H]6OC[C@@H](O)[C@H](O)[C@H]6O)[C@H](O)[C@H]5O)CC[C@]34C=O)[C@@]1(O)CC[C@@H]2C1=CC(=O)OC1 : 4.5

Now consider the entry below.
stdin: Give me measured TGI, please, for this molecule: O=C1OCC2=C1C(c1cccc(Cl)c1)c1cc3c(cc1N2CCO)CCC3 (centres undefined)
stdout: 0.0947
